Data provenance is patent US20200291018A1.

Biological target: AXL (Homo sapiens)
Assay: TR-FRET kinase activity assay, AXL
Type: biochemical
Settings: ATP at Km, 60 minutes
Readout: IC50

Would you please look over these solved cases?
>>> measured_result("CCCC(C)Nc1ncc2c(OC[C@H]3CC[C@@H](O)CC3)ncc([C@H]3CC[C@H](O)CC3)c2n1 (some centres unmarked) [Compound 157]")
"100 to 1000 nM"
>>> measured_result("C[C@@H](CC(F)(F)F)Nc1ncc2c(O[C@@H]3C[C@H]4CC[C@@H](C3)N4C[C@H]3CCCO3)ncc([C@H]3CC[C@H](O)CC3)c2n1 [Compound 412]")
"≤ 100 nM"
>>> measured_result("CC[C@H](C)Nc1ncc2c(=O)n(CC34CCC(N(C)C)(CC3)CC4)cc([C@H]3CC[C@H](O)CC3)c2n1 [Compound 264]")
"≤ 100 nM"
>>> measured_result("COC[C@H](C)Nc1ncc2c(OC3CCOCC3)ncc(C3CCC4(CC3)OCCO4)c2n1 [Compound 243]")
"1000 to 10000 nM"

Note: attention shifts to another entry.
The recorded IC50 for entry COC[C@H](C)Nc1ncc2c(O[C@@H]3CCOC3)ncc([C@H]3CC[C@H](O)CC3)c2n1 [Compound 354] equals 1000 to 10000 nM

====

# IC50 measurements, system: UniProt Q06418
# Sequence (Q06418 41-890): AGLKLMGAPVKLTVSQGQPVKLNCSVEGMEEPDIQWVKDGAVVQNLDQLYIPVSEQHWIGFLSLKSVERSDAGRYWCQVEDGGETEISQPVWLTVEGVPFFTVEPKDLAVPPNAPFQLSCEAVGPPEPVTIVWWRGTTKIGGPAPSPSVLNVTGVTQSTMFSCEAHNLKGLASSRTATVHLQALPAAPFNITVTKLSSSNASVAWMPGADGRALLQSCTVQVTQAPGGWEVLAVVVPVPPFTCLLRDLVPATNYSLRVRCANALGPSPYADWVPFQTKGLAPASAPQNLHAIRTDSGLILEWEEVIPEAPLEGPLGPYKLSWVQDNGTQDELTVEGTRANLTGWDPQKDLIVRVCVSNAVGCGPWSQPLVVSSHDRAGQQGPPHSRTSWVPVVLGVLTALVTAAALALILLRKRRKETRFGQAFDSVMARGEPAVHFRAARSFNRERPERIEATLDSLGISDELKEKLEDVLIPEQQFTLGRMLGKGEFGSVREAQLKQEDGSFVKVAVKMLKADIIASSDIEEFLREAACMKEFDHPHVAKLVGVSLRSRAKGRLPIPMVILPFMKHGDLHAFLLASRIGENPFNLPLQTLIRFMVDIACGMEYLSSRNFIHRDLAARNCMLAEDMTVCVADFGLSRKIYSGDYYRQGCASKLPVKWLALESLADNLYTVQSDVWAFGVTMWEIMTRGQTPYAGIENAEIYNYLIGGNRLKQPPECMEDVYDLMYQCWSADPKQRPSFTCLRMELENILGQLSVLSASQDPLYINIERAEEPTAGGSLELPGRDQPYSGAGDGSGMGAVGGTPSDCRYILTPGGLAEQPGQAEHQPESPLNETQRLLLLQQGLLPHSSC

Use the examples below as a reference point.
>>> measured_result("C[C@@H](CC(F)(F)F)Nc1ncc2c(O[C@H]3C[C@@H](O)C3)ncc([C@H]3CC[C@](C)(O)CC3)c2n1")
"≤ 100 nM"
>>> measured_result("C[C@@H](CC(F)(F)F)Nc1ncc2c(O[C@H]3C[C@@H](O)C3)ncc([C@H]3CC[C@H](O)CC3)c2n1")
"≤ 100 nM"
>>> measured_result("C[C@@H](CC(F)F)Nc1ncc2c(O[C@H]3C[C@@H](O)C3)ncc([C@H]3CC[C@H](O)CC3)c2n1")
"≤ 100 nM"
>>> measured_result("CC1CC(Nc2ncc3c(OC4CCNCC4)ncc([C@H]4CC[C@H](O)CC4)c3n2)C1 (stereo partly drawn)")
"≤ 100 nM"
>>> measured_result("CCCC(C)Nc1ncc2c(O[C@@H]3C[C@H]4CC[C@@H](C3)O4)ncc([C@H]3CC[C@H](O)CC3)c2n1 (stereo partly drawn)")
"100 to 1000 nM"
>>> measured_result("C[C@@H](CC(F)(F)F)Nc1ncc2c(O[C@@H]3C[C@H]4CC[C@@H](C3)N4C[C@H]3CCOC3)ncc([C@H]3CC[C@H](O)CC3)c2n1")
"≤ 100 nM"

CCCC(C)Nc1ncc2c(N3CCC[C@H](N(C)C)C3)ncc([C@H]3CC[C@H](O)CC3)c2n1 (stereo partly drawn) has a reported IC50 of ≤ 100 nM

====

A collection of molecules and their measured pIC50
Molecular target: AXL (Homo sapiens, UniProt P30530)
Sequence (P30530 26-894): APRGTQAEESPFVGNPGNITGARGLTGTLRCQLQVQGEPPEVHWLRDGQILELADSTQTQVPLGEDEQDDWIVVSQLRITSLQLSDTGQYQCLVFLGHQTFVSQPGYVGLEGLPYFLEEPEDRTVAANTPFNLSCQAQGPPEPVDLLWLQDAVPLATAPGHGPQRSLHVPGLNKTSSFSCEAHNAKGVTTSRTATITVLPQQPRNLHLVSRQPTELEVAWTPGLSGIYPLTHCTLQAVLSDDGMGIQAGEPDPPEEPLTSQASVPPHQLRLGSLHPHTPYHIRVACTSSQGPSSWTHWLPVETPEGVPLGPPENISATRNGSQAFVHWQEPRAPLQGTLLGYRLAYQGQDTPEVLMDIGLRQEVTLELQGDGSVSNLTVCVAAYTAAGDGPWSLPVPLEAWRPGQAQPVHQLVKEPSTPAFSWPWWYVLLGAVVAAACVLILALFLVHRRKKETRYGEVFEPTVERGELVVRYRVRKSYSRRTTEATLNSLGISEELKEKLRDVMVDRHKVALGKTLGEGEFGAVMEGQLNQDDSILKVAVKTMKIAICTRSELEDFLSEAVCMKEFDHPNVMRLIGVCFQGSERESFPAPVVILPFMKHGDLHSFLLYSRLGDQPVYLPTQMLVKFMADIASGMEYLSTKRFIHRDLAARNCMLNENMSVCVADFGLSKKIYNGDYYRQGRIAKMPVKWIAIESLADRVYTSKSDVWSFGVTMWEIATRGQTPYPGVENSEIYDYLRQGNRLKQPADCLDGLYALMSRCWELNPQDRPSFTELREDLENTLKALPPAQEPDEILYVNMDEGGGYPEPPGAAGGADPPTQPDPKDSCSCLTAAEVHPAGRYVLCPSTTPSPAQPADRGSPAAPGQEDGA
pIC50: −log10 of the molar value. Where a name gives a salt, the structure may show the parent alone.

Recorded results for 5 molecules are shown here.
>>> measured_result("CCCCNc1ncc2c(NC3CCOCC3)ncc([C@H]3CC[C@H](O)CC3)c2n1 [Compound 124]")
"≥ 7.00"
>>> measured_result("COCCN1[C@@H]2CC[C@H]1C[C@H](Oc1ncc([C@H]3CC[C@H](O)CC3)c3nc(N[C@@H](C)CC(F)(F)F)ncc13)C2 [Compound 432]")
"≥ 7.00"
>>> measured_result("CCCCNc1cc2c(cn1)c(=O)n(C1CCNCC1)cc2[C@H]1CC[C@H](O)CC1 [Compound 109, hydrochloride]")
"6.00 to 7.00"
>>> measured_result("CCc1cccc(Nc2ncc3c(OC4CCNCC4)ncc([C@H]4CC[C@H](O)CC4)c3n2)c1 [Compound 207]")
"≥ 7.00"
>>> measured_result("CCOc1ncc([C@H]2CC[C@H](O)CC2)c2nc(N[C@@H](C)CC(F)(F)F)ncc12 [Compound 359]")
"6.00 to 7.00"

Lab note: measured pIC50 of C[C@@H](CC(F)(F)F)Nc1ncc2c(O[C@@H]3C[C@H]4CC[C@@H](C3)N4C[C@@H]3CCOC3)ncc([C@H]3CC[C@H](O)CC3)c2n1 [Compound 416] was ≥ 7.00

Lab note: CC[C@H](C)Nc1ncc2c(O[C@H]3CC[C@H](N(C)C)C3)ncc([C@H]3CC[C@H](O)CC3)c2n1 [Compound 267] gave pIC50 of ≥ 7.00

// field: pIC50; key: CC[C@H](C)Nc1ncc2c(=O)n(CC34CCC(N)(CC3)CC4)cc([C@H]3CC[C@H](O)CC3)c2n1 [Compound 251] ; value = 6.00 to 7.00

So for COCC(COC)Nc1ncc2c(=O)n(C3CCNCC3)cc([C@H]3CC[C@H](O)CC3)c2n1 [Compound 110] , the logged pIC50 turned out to be 5.00 to 6.00

pIC50 recorded for this molecule, COC[C@H](C)Nc1ncc2c(OC3CCOCC3)ncc(-c3ccc(F)cc3)c2n1 [Compound 395] , is 5.00 to 6.00

pIC50 reading for C[C@@H](CC(F)(F)F)Nc1ncc2c(O[C@@H]3C[C@H]4CC[C@@H](C3)N4[C@H]3CCOC3)ncc([C@H]3CC[C@H](O)CC3)c2n1 [Compound 413] : ≥ 7.00

molecule COC[C@H](C)Nc1cc2c(cn1)c(OC1CCOCC1)ncc2[C@H]1CC[C@H](O)CC1 [Compound 285] , pIC50 observed: 5.00 to 6.00

====

Below, each of the compounds is paired with its reported IC50 value.
Target: AXL (Homo sapiens, UniProt P30530)

Previously resolved entries follow.
>>> measured_result("COC[C@H](C)Nc1ncc2c(OC3C[C@H]4CC[C@@H](C3)N4C)ncc([C@H]3CC[C@H](O)CC3)c2n1 (stereo partly shown)")
"100 to 1000 nM"
>>> measured_result("CCC[C@@H](C)Nc1ncc2c(=O)n(C3CCNCC3)cc([C@H]3CC[C@H](O)CC3)c2n1")
"1000 to 10000 nM"
>>> measured_result("COC[C@H](C)Nc1ncc2c(O[C@H]3CCN(C)C(C)(C)C3)ncc([C@H]3CC[C@H](O)CC3)c2n1")
"100 to 1000 nM"
>>> measured_result("O[C@H]1CC[C@H](c2cnc(OC3CCNCC3)c3cnc(NC4CCOCC4)nc32)CC1")
"100 to 1000 nM"
>>> measured_result("CCCCNc1ncc2c(OC3CCN(C)CC3)ncc([C@H]3CC[C@H](O)CC3)c2n1")
"≤ 100 nM"
>>> measured_result("O[C@H]1CC[C@H](c2cnc(OC3CCNCC3)c3cnc(Nc4ccc(Cl)cc4)nc32)CC1")
"≤ 100 nM"

Okay, now this compound:
The measured IC50 associated with CN1C[C@@H](Nc2ncc3c(OC4CCOCC4)ncc([C@H]4CC[C@H](O)CC4)c3n2)CC1=O reads 1000 to 10000 nM

====

Molecular target: FLT3 (Homo sapiens)
Sequence (P36888 27-993): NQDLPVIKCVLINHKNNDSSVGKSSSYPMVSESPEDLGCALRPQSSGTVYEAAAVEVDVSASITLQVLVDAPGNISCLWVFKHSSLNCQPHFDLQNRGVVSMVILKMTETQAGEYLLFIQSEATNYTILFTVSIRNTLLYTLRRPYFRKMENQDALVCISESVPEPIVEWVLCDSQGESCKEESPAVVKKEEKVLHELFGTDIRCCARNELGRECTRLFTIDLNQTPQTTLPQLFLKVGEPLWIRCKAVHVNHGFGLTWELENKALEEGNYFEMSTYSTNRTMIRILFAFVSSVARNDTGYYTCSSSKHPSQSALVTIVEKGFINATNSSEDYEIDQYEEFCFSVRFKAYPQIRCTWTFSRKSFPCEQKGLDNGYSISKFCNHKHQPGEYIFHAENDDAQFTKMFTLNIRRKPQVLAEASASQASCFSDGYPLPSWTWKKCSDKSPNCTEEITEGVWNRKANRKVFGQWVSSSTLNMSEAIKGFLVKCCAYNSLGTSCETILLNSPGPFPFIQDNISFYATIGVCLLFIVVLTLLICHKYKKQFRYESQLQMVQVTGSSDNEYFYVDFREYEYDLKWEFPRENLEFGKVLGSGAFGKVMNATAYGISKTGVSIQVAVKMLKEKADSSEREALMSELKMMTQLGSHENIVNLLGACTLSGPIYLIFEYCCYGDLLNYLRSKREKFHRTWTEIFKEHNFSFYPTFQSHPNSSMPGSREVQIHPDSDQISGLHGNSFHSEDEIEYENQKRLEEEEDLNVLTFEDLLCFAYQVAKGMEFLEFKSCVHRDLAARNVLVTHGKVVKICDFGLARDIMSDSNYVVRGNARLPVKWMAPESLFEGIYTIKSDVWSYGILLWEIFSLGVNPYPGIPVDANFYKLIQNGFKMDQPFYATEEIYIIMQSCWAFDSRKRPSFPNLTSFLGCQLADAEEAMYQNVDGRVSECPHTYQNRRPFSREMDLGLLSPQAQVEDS
Experiment: TR-FRET kinase activity assay, FLT3
Type: biochemical
Settings: ATP at Km, 60 minutes
Items are presented alongside their recorded IC50.

// solved cases for IC50 follow
>>> measured_result("C[C@@H](CC(F)(F)F)Nc1ncc2c(O[C@@H]3C[C@H]4CC[C@@H](C3)N4C3COC3)ncc([C@H]3CC[C@H](O)CC3)c2n1")
"0.1 to 1 µM"
>>> measured_result("CCC(C)Nc1ncc2c(OC3CCOCC3)ncc([C@H]3CC[C@H](O)CC3)c2n1 (some centres unmarked)")
"1 to 10 µM"
>>> measured_result("CC(=O)N[C@H]1C[C@@H](Oc2ncc([C@H]3CC[C@H](O)CC3)c3nc(N[C@@H](C)CC(F)(F)F)ncc23)C1")
"0.1 to 1 µM"

IC50 reading for COC[C@H](C)Nc1ncc2c(OC3CCOCC3)ncc([C@@H]3CCCNC3)c2n1 : 1 to 10 µM

Lab book: IC50 of COC[C@H](C)Nc1ncc2c(C3CC3)ncc([C@H]3CC[C@H](O)CC3)c2n1 noted as 1 to 10 µM

Measured IC50, O[C@H]1CC[C@H](c2cnc(OC3CCOCC3)c3cnc(NC4CCCC4)nc32)CC1 : ≤ 0.1 µM

The recorded IC50 for entry COC[C@H](C)Nc1ncc2c(O[C@H]3CCN(C)C3)ncc([C@H]3CC[C@H](O)CC3)c2n1 equals > 10 µM

In plain terms, CCCCC[C@H](C)Nc1ncc2c(OC3CCNCC3)ncc([C@H]3CC[C@H](O)CC3)c2n1 [Compound 121] has a documented IC50 of 1 to 10 µM
